test system: PRRSV; test: IC50 against PRRSV in Marc145 cells by indirect immunofluorescence; format: cell-based; conditions: Porcine reproductive and respiratory syndrome virus
Endpoint: pIC50
pIC50 is defined as minus the log10 of a concentration measured in mol/L.

Please report the measured pIC50 for COc1cc(O)c(CC=C(C)C)c(O)c1C(=O)/C=C/c1ccc(O)cc1 [Xn, xanthohumol]
5.63

###

test: Cytotoxicity to Marc-145 cells (CCK8, CC50); type: cell-based; conditions: African green monkey, Marc-145 cells; Marc145 cells, CCK8 cytotoxicity assay
Endpoint: CC50 at 48 h (µM)
Write it as a number; the unit µM goes unstated.

Please report the measured CC50 at 48 h for COc1cc(O)c(CC=C(C)C)c(O)c1C(=O)/C=C/c1ccc(O)cc1
62.5
